Exercise: for every item that follows, state its recorded log10 EC50.
Target: Oxysterols receptor LXR-beta (Homo sapiens, UniProt P55055)
Sequence (P55055 whole entry, the tested form may be a part): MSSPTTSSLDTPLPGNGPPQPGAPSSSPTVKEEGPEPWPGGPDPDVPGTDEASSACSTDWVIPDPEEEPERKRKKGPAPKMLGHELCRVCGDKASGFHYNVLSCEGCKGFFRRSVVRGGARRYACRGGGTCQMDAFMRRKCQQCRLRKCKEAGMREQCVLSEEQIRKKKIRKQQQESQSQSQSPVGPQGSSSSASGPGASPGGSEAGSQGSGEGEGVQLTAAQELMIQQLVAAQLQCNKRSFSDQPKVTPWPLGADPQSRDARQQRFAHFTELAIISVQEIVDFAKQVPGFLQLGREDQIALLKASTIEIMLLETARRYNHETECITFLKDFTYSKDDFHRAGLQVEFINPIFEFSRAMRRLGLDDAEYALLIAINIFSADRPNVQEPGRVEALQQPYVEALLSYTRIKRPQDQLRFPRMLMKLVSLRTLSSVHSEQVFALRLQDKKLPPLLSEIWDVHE
Assay: Agonist activity at recombinant human LXRbeta-LBD expressed in Escherichia coli BL21 (DE3) assessed as peptide D22 recruitment fluorescence polarization binding assay
Answers are given as log10 of EC50 in µM.

Sample O=C(O)Cc1cccc(OCCCN(Cc2cccc(C(F)(F)F)c2Cl)CC(c2ccccc2)c2ccccc2)c1 ; log10 EC50 observed: -0.54

Sample CCOC(=O)c1cn2nc[nH]c(=O)c2c1C(C)C ; log10 EC50 observed: 1.28

Sample Oc1cccc(Cl)c1 ; log10 EC50 observed: 2.72

Sample COc1ccc(OC)c(Cl)c1 ; log10 EC50 observed: 3.01

Sample Oc1ccc(Cl)cc1 ; log10 EC50 observed: 2.71

* * *

Biological target: Oxysterols receptor LXR-beta (Homo sapiens, UniProt P55055)
Assay: Binding affinity to recombinant human LXRbeta-LBD expressed in Escherichia coli BL21 (DE3) assessed as inhibitory constant incubated for 30 mins by fluorescence polarization binding assay
observation type: pKi
// pKi is dimensionless: -log10 of concentration (M)

Measured pKi (Oxysterols receptor LXR-beta (Homo sapiens, UniProt P55055)), entry Oc1ccc(Cl)cc1 : 3.77

Measured pKi (Oxysterols receptor LXR-beta (Homo sapiens, UniProt P55055)), entry CCOC(=O)c1cn2nc[nH]c(=O)c2c1C(C)C : 3.85

Measured pKi (Oxysterols receptor LXR-beta (Homo sapiens, UniProt P55055)), entry CC(=O)c1c(C)ccc2ccccc12 : 3.82

* * *

Target: Oxysterols receptor LXR-beta (Homo sapiens, UniProt P55055)
Assay: Binding affinity to recombinant human LXRbeta-LBD expressed in Escherichia coli BL21 (DE3) assessed as inhibitory constant incubated for 30 mins by fluorescence polarization binding assay
Hi! Just check whether Ki is below 200 µM. Below gives Satisfied, equal or above gives Not satisfied.

Problem: Lab note: confirm whether the reported Ki for this compound is below 200 µM, equality not counting. compound: Brc1nn(C2CCCCO2)c2ncccc12 (stereo unspecified)
Solution: Not satisfied

Problem: Lab note: confirm whether the reported Ki for this compound is below 200 µM, equality not counting. compound: CC(C)(C)OC(=O)N1Cc2cn[nH]c2C1
Solution: Not satisfied

Problem: Lab note: confirm whether the reported Ki for this compound is below 200 µM, equality not counting. compound: O=C1Nc2ccc(Br)cc2CO1
Solution: Not satisfied

Problem: Lab note: confirm whether the reported Ki for this compound is below 200 µM, equality not counting. compound: Oc1cccc(Cl)c1
Solution: Satisfied

Problem: Lab note: confirm whether the reported Ki for this compound is below 200 µM, equality not counting. compound: O=C(O)Cc1cccc(OCCCN(Cc2cccc(C(F)(F)F)c2Cl)CC(c2ccccc2)c2ccccc2)c1
Solution: Satisfied

Problem: Lab note: confirm whether the reported Ki for this compound is below 200 µM, equality not counting. compound: CCCCOC(=O)c1ccc(O)cc1
Solution: Satisfied
